Test system: Malme-3M
Assay: Cytotoxicity against Homo sapiens (human) MALME-3M cells after 48 hr by sulforhodamine B assay
Format: functional
Known GI50 of a selection of compounds
Write it as a number; the unit µM goes unstated.

molecule=COc1ccc(-n2c(-c3ccc(Cl)cc3)cs/c2=N\NC(=O)c2ccc(O)cc2)c(OC)c1 system=Malme-3M measured=25.1
molecule=Cc1ccc(-c2cs/c(=N\NC(=O)c3ccc(O)cc3)n2-c2c(C)cccc2C)cc1 system=Malme-3M measured=22.4
molecule=COc1ccc(-c2cs/c(=N\NC(=O)c3ccc(O)cc3)n2-c2ccc(OC)cc2OC)cc1 system=Malme-3M measured=5.37

Report its GI50 with Malme-3M as the test system: `O=C(c1ccc(O)cc1)n1nc(-c2c(Cl)cccc2Cl)sc1=S`
29.5

====

System: CAKI-1
Assay: Cytotoxicity against Homo sapiens (human) Caki1 cells after 48 hr by sulforhodamine B assay
Assay type: functional
Details: CAKI-1, 48 h, read-out: pTGI (converted)
measured quantity: TGI (µM)
Write it as a number; the unit µM goes unstated.

Identify measured TGI associated with `O=C(N/N=c1\scc(-c2ccc(Cl)cc2)n1-c1ccc(Cl)cc1Cl)c1ccc(O)cc1`
52.5

Identify measured TGI associated with `O=C(c1ccc(O)cc1)n1nc(-c2c(Cl)cccc2Cl)sc1=S`
57.5

Identify measured TGI associated with `COc1ccc(-c2cs/c(=N\NC(=O)c3ccc(O)cc3)n2-c2ccc(OC)cc2OC)cc1`
52.5

====

Known LC50 of a selection of compounds
System: MCF7
Assay: Cytotoxicity against Homo sapiens (human) MCF7 cells after 48 hr by sulforhodamine B assay
Format: functional
Details: MCF7, 48 h

molecule=O=C(c1ccc(O)cc1)n1nc(-c2c(Cl)cccc2Cl)sc1=S measured="87.1 µM"
molecule=Cc1ccc(-c2cs/c(=N\NC(=O)c3ccc(O)cc3)n2-c2c(C)cccc2C)cc1 measured="> 100 µM"
molecule=COc1ccc(-c2cs/c(=N\NC(=O)c3ccc(O)cc3)n2-c2ccc(OC)cc2OC)cc1 measured="> 100 µM"

Identify measured LC50 associated with `COc1ccc(-n2c(-c3ccc(Cl)cc3)cs/c2=N\NC(=O)c2ccc(O)cc2)c(OC)c1`
> 100 µM

====

Tested on: HOP-92
Test: Cytotoxicity against Homo sapiens (human) HOP92 cells after 48 hr by sulforhodamine B assay
Assay type: functional
Details: HOP-92, 48 h
Known LC50 of a selection of compounds

Known results for compounds:
molecule=Cc1ccc(-c2cs/c(=N\NC(=O)c3ccc(O)cc3)n2-c2c(C)cccc2C)cc1 system=HOP-92 measured="> 100 µM"
molecule=COc1ccc(-c2cs/c(=N\NC(=O)c3ccc(O)cc3)n2-c2ccc(OC)cc2OC)cc1 system=HOP-92 measured="> 100 µM"

Let's switch to this compound now.
Report its LC50 with HOP-92 as the test system: `COc1ccc(-n2c(-c3ccc(Cl)cc3)cs/c2=N\NC(=O)c2ccc(O)cc2)c(OC)c1`
> 100 µM
